# Test system: KM12 colon
# TEST_DETAILS: NCI-60 one-dose screen, 48 h (100 = growth as untreated, 0 = no growth, -100 = all killed)
# CONDITIONS_USED: 10 µM unless noted
Compounds without any hit were thinned out: in the full panel of roughly 83,000, 20% have a hit. Activity calls are given as the source filed them. How the source made its calls: active means growth percent below 10; inactive means the rest.
MEASURED_ENDPOINT: growth

compound="COc1cc(C2CC(c3cc(OC)c(OC)c(OC)c3)=NN2C(C)=O)ccc1OCc1ccc(F)cc1 (stereo not drawn)" value_measured="57.1% (inactive)"
compound=CCCCn1c(O)c(N=Nc2nc(-c3cc4ccccc4oc3=O)cs2)c2cc(Br)ccc21 value_measured="114% (inactive)"

Output measured growth for this item: N/N=C(\N)c1c(N)nc(=S)[nH]c1-c1ccc(Cl)cc1Cl
105% (inactive)

###

# Test system: COLO 205 colon
# TEST_DETAILS: NCI-60 one-dose screen, 48 h
# CONDITIONS_USED: 10 µM unless noted
This is part of a sample that, as a whole, favours compounds with a hit. Of some 83,000 tested, about 20% had one in any assay. Calls of active or inactive are those of the source. How the source made its calls: active means growth percent below 10; inactive means the rest.
The categories you may choose from are active, inactive

compound=CSc1ccc(C(=O)Nc2ccc3nn(/C(C#N)=C/c4ccccn4)nc3c2)cc1 class_assignment=active
compound=N/C(=N\c1nc2ccccc2s1)NC(=O)Nc1c(Cl)cccc1Cl class_assignment=inactive
compound="COc1cc(NC(=O)c2cccc(C3CCc4c(cc(OC)c(OC)c4OC)O3)c2)cc(OC)c1OC (stereo not drawn)" class_assignment=active
compound="COCOc1cc2oc(C(=O)N[C@@H](Cc3ccccc3)C(O)C(=O)NCc3ccccc3)c(C)c(=O)c2cc1OCOC (stereo partly drawn)" class_assignment=inactive
compound=COc1ccc(-c2nnc3ccc(N/N=C/c4ccc(O)cc4)nn23)cc1 class_assignment=inactive

Kindly provide the recorded test outcome for the following compound: CSc1ccccc1NC(=O)c1ccc2nnn(/C(C#N)=C/c3ccccn3)c2c1
active

Check the results log: what was the call for Cc1ccc(NCC(=O)Cn2cc(COc3ccc(C=Nc4cnc5ccccc5c4)cc3)nn2)cc1 ?
inactive

Could you please tell me the result logged for CCCCOc1ccc(NC(=O)c2sc3nc(C)ccc3c2N)cc1 in this assay?
inactive

Recorded test outcome, item N#Cc1c(-c2cccnc2)cc(-c2ccc3ccccc3c2)[nH]c1=O
inactive

Give the logged outcome of this assay for the following compound: CC1(C)CC[C@]2(C(=O)O)CC[C@]3(C)C(=CCC4[C@@]5(C)C[C@@H](O)[C@@H]6OC(c7cccc(Br)c7)OC[C@@]6(C)C5CC[C@]43C)C2C1 (stereo partly drawn)
active

Give the logged outcome of this assay for the following compound: Cc1ccc(C(SCCNCc2cc(N(C)C)ccn2)(c2ccccc2)c2ccccc2)cc1
active

Tell me the recorded outcome of this test for Cc1ccc(-c2nc(C#N)c(S(=O)(=O)N3CCN(S(=O)(=O)c4ccc(Cl)cc4)CC3)o2)cc1 .
inactive

Would you mind telling me which call this test gave NS(=O)(=O)c1ccc(-n2cc(-c3cccc(NC(=O)c4ccc(Cl)c(C(F)(F)F)c4)c3)nn2)cc1 ?
active

###

# Tested on: MDA-MB-468 breast
# TEST_DETAILS: NCI-60 one-dose screen, 48 h (100 = growth as untreated, 0 = no growth, -100 = all killed)
# CONDITIONS_USED: 10 µM unless noted
The panel holds about 83,000 compounds, 20% with a hit somewhere; the sample as a whole holds those more often.
MEASURED_ENDPOINT: growth (%)
Answers are plain numbers, in %.

Example molecules with recorded growth:
chemical_smiles=C#CCOc1ccc(/C=N/Nc2nc(-c3cc4cc(Br)ccc4oc3=O)cs2)cc1OC value_measured=26.8
chemical_smiles=COc1ccc2nc(Nc3cccc(NC(=O)c4ccc(CN5CCCN(C)CC5)c(C(F)(F)F)c4)c3)ccc2c1 value_measured=-71.1
chemical_smiles=Cn1cc(-c2cc3nc(-c4cn(C)c5ncccc45)cc(N)n3n2)c2ccccc21 value_measured=-24.7

Alright, here's another molecule for you.
Give growth for CN(C)c1ccnc(NCCCSC(c2ccccc2)(c2ccccc2)c2ccccc2)c1
-34.9

###

# System: MCF7 breast
# TEST_DETAILS: NCI-60 one-dose screen, 48 h (100 = growth as untreated, 0 = no growth, -100 = all killed)
# CONDITIONS_USED: 10 µM unless noted
The panel holds about 83,000 compounds, 20% with a hit somewhere; the sample as a whole holds those more often. Activity calls are given as the source filed them. Rule for the calls: active = growth percent below 10; inactive = the rest.
MEASURED_ENDPOINT: growth

compound=CN(C)c1nc(NCCNS(=O)(=O)c2ccc(C(=O)/C=C/c3ccc(Cl)cc3)cc2)nc(Nc2ccc(F)cc2)n1 value_measured="-77.1% (active)"
compound=COc1cccc(/C=C/C(=O)c2ccc(OC)c(S(N)(=O)=O)c2)c1 value_measured="7.97% (active)"
compound=Cn1cc(-c2nc(N)nnc2-c2c[nH]c3ccc(F)cc23)c2cccnc21 value_measured="21.2% (inactive)"
compound="CN(C)c1nc(NCCNS(=O)(=O)c2ccc(C3=Nc4c(N)nc(N)nc4NC(c4ccccc4)C3)cc2)nc(Nc2ccc(F)cc2)n1 (stereo unspecified)" value_measured="17.3% (inactive)"
compound=CC(=O)Nc1ccc(-c2nc3cc(-c4ccc(O)cc4)ccc3n2C)cc1 value_measured="24.7% (inactive)"
compound=O=C(COc1ccc2c(c1)CCCC(=O)N2)NCc1ccccc1 value_measured="59.3% (inactive)"
compound="COC(=O)/C=C/c1cccc2c1C(=O)NC(C)(c1cc3cc4ccccc4cc3oc1=O)N2 (stereo unspecified)" value_measured="47.2% (inactive)"
compound=Cc1cc(C)n(-c2ccc3nnc(-c4ccccc4)n3n2)n1 value_measured="89.9% (inactive)"

// each listed compound needs a value for growth
1. O=C(COc1ccc(NC(=O)Nc2ccc(Cl)c(Cl)c2)cc1)N=Nc1c(O)[nH]c2ccc(Br)cc12
2. C[C@H]1CN(C(=O)c2ccc3c(NNC(=O)c4ccncn4)nc4cc(F)c(F)cc4n23)CCN1

1. -1.82% (active)
2. 17.4% (inactive)

###

# System: DU-145 prostate
# TEST_DETAILS: NCI-60 one-dose screen, 48 h
# CONDITIONS_USED: 10 µM unless noted
Compounds without any hit were thinned out: in the full panel of roughly 83,000, 20% have a hit. Calls of active or inactive are those of the source. How the source made its calls: active means growth percent below 10; inactive means the rest.
Your response should consist of one outcome taken from y for active, n for inactive

Answered examples (4):
compound="COc1c(F)ccc(C(=O)Nc2ccc3nc(NC(=O)C4CCCN(S(=O)(=O)c5ccc(Cl)cc5)C4)sc3c2)c1F (stereo not drawn)" class_assignment=n
compound=COc1cc(-c2nc3ccc(C)cc3[nH]2)ccc1OCc1nnc(-c2ccc(Br)cc2)o1 class_assignment=n
compound="COc1ccc(N2N=C(c3ccc4c(c3)OCO4)CC2c2cccc(NC(=O)CCNS(=O)(=O)c3ccc(Cl)cc3)c2)cc1 (stereo not drawn)" class_assignment=n
compound=COc1ccc(C(=O)/C=C/c2cc3c(cc2Br)OCO3)cc1S(N)(=O)=O class_assignment=y

Called result for CC(=O)OC[C@@]1(C)C2CC[C@]3(C)C(CC=C4C5CC(C)(C)CC[C@]5(C(=O)Nc5ccc(C)cc5)CC[C@]43C)[C@@]2(C)C[C@@H](OC(C)=O)[C@@H]1OC(C)=O (stereo partly drawn)
n

Dear colleague, could you share the recorded outcome for CCCCOc1ccc(NC(=O)c2sc3nc(C)ccc3c2N)cc1 when you have a moment?
n

Record request — test call for COc1ccc(C2=NN(c3ccccc3)C(c3ccc(OCc4ccccc4)c(OC)c3)C2)cc1OC (stereo not drawn)
n

Please state the recorded outcome for this compound: COc1ccc(C(=O)/C=C/c2ccccc2Br)cc1S(N)(=O)=O
y

###

# System: TK-10 renal
# TEST_DETAILS: NCI-60 one-dose screen, 48 h (100 = growth as untreated, 0 = no growth, -100 = all killed)
# CONDITIONS_USED: 10 µM unless noted
The panel holds about 83,000 compounds, 20% with a hit somewhere; the sample as a whole holds those more often.
growth below 80% gives condition not met; growth at or above it gives condition met.

compound=O=C(N=Nc1c(O)[nH]c2ccc([N+](=O)[O-])cc12)c1ccc2nc(-c3ccccc3)[nH]c2c1 class_assignment="condition met"

In plain terms: is recorded growth at least 80% for COc1ccc(C2=NN(c3ccccc3)C(c3ccc(OC)c(OCc4ccccc4)c3)C2)cc1OC (stereo not drawn) ?
condition met

Say whether COc1ccc(CCC2c3c(cc4c(c3OC)OCO4)CCN2C)cc1 (stereo not drawn) shows growth of 80% or more.
condition not met

API: above_or_equal(metric=growth, cutoff=80%) for item CSc1ccc(C(=O)Nc2ccc3nn(/C(C#N)=C/c4ccccn4)nc3c2)cc1
condition not met

Is reported growth greater than or equal to 80% here: COC(OC)C1=C(C)OC(N)=C(C#N)C12C(=O)Nc1ccccc12 (stereo not drawn)
condition met

Quick check: does Cc1cccc(-c2nc(Nc3ccc(C)c(S(N)(=O)=O)c3)c3ccccc3n2)c1 have growth greater than or equal to 80%?
condition not met

Please tell me: is the compound O=S(=O)(Nc1cccc(-n2cnc3cc(-c4ccc(O)cc4)ccc32)c1)C1CC1 at or over 80% in terms of growth?
condition not met

// data source = PubChem BioAssay (NCI)
